test: qHTS for Inhibitors of human tyrosyl-DNA phosphodiesterase 1 (TDP1): qHTS in cells in absence of CPT; conditions: DT40 Tdp1-/- hTDP1 cells, no CPT, ATP luminescence, 48 h; further: nearly all actives have a fitted effect of over 55% in size; further: potency means the concentration at half of the fitted maximal effect
Hit rate of the full screen: of about 420,000 compounds, about 64,000 (15%) were called active. About 27% were inconclusive and are not listed. Only a sample is shown.
Measure Name: Potency

Sample records with Potency:
| Molecule | Potency |
| --- | --- |
| O=C(CN1CCOCC1)Nc1cc(Cl)ccc1Cl | inactive |
| O=C(c1cccs1)N(C(=O)c1cccs1)c1ccccn1 | inactive |
| Cc1nc(C)c(-c2csc(NCCc3ccccc3)n2)s1 | 13 µM (active) |
| CC(C)NC(=O)C(c1ccc(F)cc1)N(C(=O)CCC(=O)Nc1ccccn1)c1ccccc1F (stereo not drawn) | inactive |
| S=c1[nH]nc(NCCc2ccccc2)s1 | inactive |
| Brc1cc(Br)c(Oc2cc(Br)c(Br)cc2Br)cc1Br | inactive |
| O=C(N1CCOCC1)N(Cc1ccccc1)c1ccccn1 | inactive |
| O=C(c1ccc(Br)o1)N(c1ccccn1)C1CCCCC1 | 23.1 µM (active) |

Ask: Give its Potency value. Item: COc1ccc(OCC(=O)NN2Cc3ccccc3C2=N)cc1
Reply: inactive

Ask: So what's the measured Potency for this one? Cc1ccc(NC(=S)NC(=O)/C=C/c2ccc(Cl)cc2)cc1
Reply: inactive

Ask: Reported Potency for COc1ccc(CNC(=O)COc2cccnc2[N+](=O)[O-])cc1 : what is it?
Reply: inactive

Ask: Return reported Potency; argument: COC(=O)c1cccc(N(CC(=O)NCC2CCCO2)C(=O)CCC(=O)Nc2cc(C)on2)c1 (stereo not drawn)
Reply: inactive

Ask: Entry COc1cccc(C(=O)NC(=O)Nc2nc(C)cc(C(F)(F)F)n2)c1 has what Potency?
Reply: inactive

Ask: Tell me the measured Potency of Cc1c(Nc2nc3ccccc3nc2NS(=O)(=O)c2cccs2)c(=O)n(-c2ccccc2)n1C , please.
Reply: inactive

Ask: Give its Potency value. Item: COc1ccc(OCC(=O)NNC(=O)c2cccc(C)c2)cc1
Reply: inactive

Ask: Name the recorded Potency for Cc1nc(N)sc1-c1ccccc1 .
Reply: inactive

Ask: Sample COC(=O)C1NN=C(C(=O)c2ccc(Br)cc2)C1c1cccc(Br)c1 (stereo not drawn) — what was its Potency?
Reply: inactive

Ask: Recorded Potency for Cc1ccc(S(=O)(=O)N2CC(=O)Nc3ccccc32)cc1C , please?
Reply: inactive

Ask: For the molecule O=C(CN1C(=O)CCC1=O)Nc1ccc(S(=O)(=O)N2CCOCC2)cc1 , what Potency is on record?
Reply: inactive

Ask: For the molecule Cc1ccccc1NC(=O)COc1cccc2c1CCNC2=O , what Potency is on record?
Reply: inactive

Ask: What value of Potency has been recorded for this entry: Cc1noc(C)c1NC(=O)Nc1cccc2c1O[C@H](CN(C)C(=O)Nc1ccccc1)[C@@H](C)CN([C@H](C)CO)C2=O
Reply: inactive

Ask: Look up Potency for this molecule: Cn1c(=O)oc2cc(S(=O)(=O)NCCC(=O)NCc3ccccc3Cl)ccc21
Reply: inactive

Ask: Which value of Potency has been reported for CCC(C)(C)NC(=O)CN(Cc1cccs1)C(=O)CNS(=O)(=O)c1ccc(F)cc1 in the records?
Reply: inactive

Source listed as PubChem BioAssay AID686978.
